Sourced from ChEMBL document CHEMBL1130298

# EXPERIMENT_NOTES: Inhibition of Iks current in isolated guinea pig myocytes during a 1s voltage clamp step from -50 to +50 mV.
# Type: functional, cell-based
# RECORDED_CONDITIONS: Cavia porcellus
Recorded pIC50, one value per entry.
Just so you know, pIC50 here is -log10 of the concentration in molar units; reply with that number alone.

Example entries and their recorded answers appear below.
{"columns": ["COMPOUND", "MEASUREMENT"],
 "data": [
  ["CC(C)N1C(=O)[C@H](NC(=O)CCC2CCCCC2)N=C(c2ccccc2)c2ccccc21", 7.70],
  ["CN1C(=O)[C@H](NC(=O)c2ccccc2)N=C(c2ccccc2)c2ccccc21", 6.22],
  ["CC(C)N1C(=O)[C@H](NC(=O)Cc2cc(Cl)cc(Cl)c2)N=C(c2ccccc2)c2ccccc21", 8.00],
  ["CN1C(=O)[C@H](NC(=O)c2cc(Cl)cc(Cl)c2)N=C(c2ccccc2)c2ccccc21", 7.35],
  ["O=C(Cc1ccc(Cl)cc1Cl)N[C@@H]1N=C(c2ccccc2)c2ccccc2N(CC(F)(F)F)C1=O", 8.05],
  ["O=C(N[C@@H]1N=C(c2ccccc2)c2ccccc2N(CC(F)(F)F)C1=O)c1cc(Cl)cc(Cl)c1", 7.96]
]}

Measured pIC50 of "CN1C(=O)[C@H](NC(=O)CCC2CCCCC2)N=C(c2ccccc2)c2ccccc21" : 8.00

Measured pIC50 of "CN1C(=O)[C@H](NC(=O)CCc2ccccc2)N=C(c2ccccc2)c2ccccc21" : 6.70

Measured pIC50 of "CN1C(=O)[C@H](NC(=O)Cc2ccccc2)N=C(c2ccccc2)c2ccccc21" : 6.52

Measured pIC50 of O=C(Cc1ccc(C(F)(F)F)cc1C(F)(F)F)N[C@@H]1N=C(c2ccccc2)c2ccccc2N(CC(F)(F)F)C1=O [L-768673] : 8.22

Measured pIC50 of "CN1C(=O)[C@H](NC(=O)/C=C/c2ccc(Cl)cc2Cl)N=C(c2ccccc2)c2ccccc21" : 8.22

Measured pIC50 of "CC(C)N1C(=O)[C@H](NC(=O)c2cc(Cl)cc(Cl)c2)N=C(c2ccccc2)c2ccccc21" : 8.22

Measured pIC50 of CN1C(=O)[C@H](NC(=O)C(N)Cc2ccccc2)N=C(c2ccccc2)c2ccccc21 (some centres not stated) : 5.55

Measured pIC50 of Cc1cccc(NC(=O)N[C@@H]2N=C(c3ccccc3)c3ccccc3N(C)C2=O)c1 [L-365260] : 6.67

Measured pIC50 of "O=C(Cc1cc(Cl)cc(Cl)c1)N[C@@H]1N=C(c2ccccc2)c2ccccc2N(CC(F)(F)F)C1=O" : 7.52

Measured pIC50 of "CN1C(=O)[C@H](NC(=O)Cc2ccc(C(F)(F)F)cc2C(F)(F)F)N=C(c2ccccc2)c2ccccc21" : 6.85
